- measurementDescription: in vivo
- conditions: rat, po
measuredProperty: bioavailability

Exercise: Look at this compound and give its reported bioavailability. CCC[C@H](NC(=O)[C@@H]1[C@H]2CCC[C@H]2CN1C(=O)[C@@H](NC(=O)[C@@H](NC(=O)c1cnccn1)C1CCCCC1)C(C)(C)C)C(=O)C(=O)NC1CC1 [VX-950]
Solution: < 0.5%

// provenance: patent US20130274180A1
